Would you mind telling me the reported unfolding enthalpy (van 't Hoff) of each entry?
B1: Ribonuclease HI, P0A7Y4 (parent)
chain: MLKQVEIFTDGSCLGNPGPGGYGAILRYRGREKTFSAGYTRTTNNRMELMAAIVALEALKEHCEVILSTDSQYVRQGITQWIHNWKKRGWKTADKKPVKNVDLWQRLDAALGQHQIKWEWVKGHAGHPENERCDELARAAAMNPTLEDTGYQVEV

- Variants of: B1
- RECORDED_CONDITIONS: Escherichia coli (strain K12); pH 5.5; Thermal; CD; glycine-HCl 10 mM; reversible: yes; structure 2RN2; whole UniProt chain shown
Answers are plain numbers, in kcal/mol.

variant_identifier=A125T observed_measurement=88.8
variant_identifier="K91R D94E K95G" observed_measurement=86.8
variant_identifier="D94R K95G" observed_measurement=102
variant_identifier="K91R D94E" observed_measurement=87.5
variant_identifier="Y28F R29H G30A R31H" observed_measurement=80.5

Now for another entry.
unfolding enthalpy (van 't Hoff) recorded for this variant, K91R K95G , is 92
